# System: normal human lung fibroblasts
# experimental_details: Ribosomal profiling: translational efficiency in TGFβ-treated fibroblasts
# Format: cell-based
# measurement_setup: ENSG00000166503; TGFβ-treated fibroblasts
metric_name: renormalizing the translational profile of RP11-382A20.3.1

| molecule | tgt | value_reported |
| --- | --- | --- |
| Cc1ccc(=O)n(-c2ccccc2)c1 | normal human lung fibroblasts | − (− = <0.9) |
| COC(=O)[C@H]1[C@@H](O)[C@@]2(O)c3c(OC)cc(O[C@@H]4O[C@@H]([C@H](O)CO)CO[C@H]4OC)cc3O[C@@]2(c2ccc(OC)cc2)[C@@H]1c1ccccc1 | normal human lung fibroblasts | − (− = <0.9) |
| CC(C=CC(=O)NO)=CC(C)C(=O)c1ccc(N(C)C)cc1 (centres unmarked) | normal human lung fibroblasts | − (− = <0.9) |
| CC(C)n1nc(-c2cc3cc(O)ccc3[nH]2)c2c(N)ncnc21 | normal human lung fibroblasts | − (− = <0.9) |

The molecule Cc1cc(C2CCCCC2)n(O)c(=O)c1.NCCO on normal human lung fibroblasts: renormalizing the translational profile of RP11-382A20.3.1 was − (− = <0.9)

* * *

# Tested on: normal human lung fibroblasts
# experimental_details: Ribosomal profiling: translational efficiency in TGFβ-treated fibroblasts
# Assay type: cell-based
# measurement_setup: ENSG00000175505; TGFβ-treated fibroblasts
metric_name: renormalizing the translational profile of CLCF1

| molecule | value_reported |
| --- | --- |
| Cc1cc(C2CCCCC2)n(O)c(=O)c1.NCCO | − (− = <0.9) |
| Cc1ccc(=O)n(-c2ccccc2)c1 | − (− = <0.9) |
| CC(C)n1nc(-c2cc3cc(O)ccc3[nH]2)c2c(N)ncnc21 | − (− = <0.9) |
| CC(C=CC(=O)NO)=CC(C)C(=O)c1ccc(N(C)C)cc1 (centres unmarked) | + (+ = 0.9 to 1.5) |

Next, consider the following molecule.
The molecule COC(=O)[C@H]1[C@@H](O)[C@@]2(O)c3c(OC)cc(O[C@@H]4O[C@@H]([C@H](O)CO)CO[C@H]4OC)cc3O[C@@]2(c2ccc(OC)cc2)[C@@H]1c1ccccc1 on normal human lung fibroblasts: renormalizing the translational profile of CLCF1 was + (+ = 0.9 to 1.5)

* * *

# Tested on: normal human lung fibroblasts
# experimental_details: Ribosomal profiling: translational efficiency in TGFβ-treated fibroblasts
# Type: cell-based
# measurement_setup: gene RPSA (ENSG00000168028); TGFβ-treated fibroblasts
metric_name: effect in renormalizing the translational profile of the gene

| compound | value_reported |
| --- | --- |
| Cc1ccc(=O)n(-c2ccccc2)c1 [pirfenidone, 5-methyl-1-phenylpyridin-2-one] | − (− = <0.9) |
| CC(C=CC(=O)NO)=CC(C)C(=O)c1ccc(N(C)C)cc1 (centres unmarked) [TSA] | − (− = <0.9) |
| CC(C)n1nc(-c2cc3cc(O)ccc3[nH]2)c2c(N)ncnc21 [PP242] | − (− = <0.9) |
| COC(=O)[C@H]1[C@@H](O)[C@@]2(O)c3c(OC)cc(O[C@@H]4O[C@@H]([C@H](O)CO)CO[C@H]4OC)cc3O[C@@]2(c2ccc(OC)cc2)[C@@H]1c1ccccc1 [Silvestrol] | − (− = <0.9) |

Next, consider the following compound.
The compound Cc1cc(C2CCCCC2)n(O)c(=O)c1.NCCO [CPX, ciclopirox oloamine] on normal human lung fibroblasts: effect in renormalizing the translational profile of the gene was − (− = <0.9)

* * *

# System: normal human lung fibroblasts
# experimental_details: Ribosomal profiling: translational efficiency in TGFβ-treated fibroblasts
# Type: cell-based
# measurement_setup: ENSG00000135390; TGFβ-treated fibroblasts
metric_name: renormalizing the translational profile of ATP5G2

Completed entries (count: 4):
| compound | tgt | value_reported |
| --- | --- | --- |
| Cc1ccc(=O)n(-c2ccccc2)c1 | normal human lung fibroblasts | + (+ = 0.9 to 1.5) |
| Cc1cc(C2CCCCC2)n(O)c(=O)c1.NCCO | normal human lung fibroblasts | − (− = <0.9) |
| CC(C)n1nc(-c2cc3cc(O)ccc3[nH]2)c2c(N)ncnc21 | normal human lung fibroblasts | + (+ = 0.9 to 1.5) |
| CC(C=CC(=O)NO)=CC(C)C(=O)c1ccc(N(C)C)cc1 (centres unmarked) | normal human lung fibroblasts | − (− = <0.9) |

# renormalizing the translational profile of ATP5G2 (compound: COC(=O)[C@H]1[C@@H](O)[C@@]2(O)c3c(OC)cc(O[C@@H]4O[C@@H]([C@H](O)CO)CO[C@H]4OC)cc3O[C@@]2(c2ccc(OC)cc2)[C@@H]1c1ccccc1 ) is − (− = <0.9)

* * *

# Tested on: normal human lung fibroblasts
# experimental_details: Ribosomal profiling: translational efficiency in TGFβ-treated fibroblasts
# Format: cell-based
# measurement_setup: gene SHC3 (ENSG00000148082); TGFβ-treated fibroblasts
# Method: Ribosomal profiling allows for measurement of changes in transcription and translation on a genome-wide basis accompanying TGFβ-dependent transformation of fibroblasts to myofibroblasts. Ribosomal profiles of the TGFβ-treated fibroblasts from Example 1 (about 6×10^6 cells/10 cm plate) were prepared and analyzed for changes in translational efficiencies with respect to potential disease-associated cellular changes accompanying this TGFβ-induced transformation. […]
metric_name: effect in renormalizing the translational profile of the gene

| chemical_string | value_reported |
| --- | --- |
| COC(=O)[C@H]1[C@@H](O)[C@@]2(O)c3c(OC)cc(O[C@@H]4O[C@@H]([C@H](O)CO)CO[C@H]4OC)cc3O[C@@]2(c2ccc(OC)cc2)[C@@H]1c1ccccc1 | − (− = <0.9) |
| CC(C)n1nc(-c2cc3cc(O)ccc3[nH]2)c2c(N)ncnc21 | − (− = <0.9) |
| Cc1ccc(=O)n(-c2ccccc2)c1 | − (− = <0.9) |

* * *

# Tested on: normal human lung fibroblasts
# experimental_details: Ribosomal profiling: translational efficiency in TGFβ-treated fibroblasts
# Format: cell-based
# measurement_setup: gene RPS25 (ENSG00000118181); TGFβ-treated fibroblasts
metric_name: effect in renormalizing the translational profile of the gene

Completed entries (count: 4):
| compound | value_reported |
| --- | --- |
| CC(C=CC(=O)NO)=CC(C)C(=O)c1ccc(N(C)C)cc1 (centres unmarked) | − (− = <0.9) |
| CC(C)n1nc(-c2cc3cc(O)ccc3[nH]2)c2c(N)ncnc21 | − (− = <0.9) |
| Cc1cc(C2CCCCC2)n(O)c(=O)c1.NCCO | − (− = <0.9) |
| Cc1ccc(=O)n(-c2ccccc2)c1 | − (− = <0.9) |

# effect in renormalizing the translational profile of the gene (compound: COC(=O)[C@H]1[C@@H](O)[C@@]2(O)c3c(OC)cc(O[C@@H]4O[C@@H]([C@H](O)CO)CO[C@H]4OC)cc3O[C@@]2(c2ccc(OC)cc2)[C@@H]1c1ccccc1 ) is − (− = <0.9)

* * *

# System: normal human lung fibroblasts
# experimental_details: Ribosomal profiling: translational efficiency in TGFβ-treated fibroblasts
# Assay type: cell-based
# measurement_setup: ENSG00000167658; TGFβ-treated fibroblasts
metric_name: renormalizing the translational profile of EEF2

| compound | value_reported |
| --- | --- |
| Cc1ccc(=O)n(-c2ccccc2)c1 | + (+ = 0.9 to 1.5) |
| COC(=O)[C@H]1[C@@H](O)[C@@]2(O)c3c(OC)cc(O[C@@H]4O[C@@H]([C@H](O)CO)CO[C@H]4OC)cc3O[C@@]2(c2ccc(OC)cc2)[C@@H]1c1ccccc1 | − (− = <0.9) |
| CC(C)n1nc(-c2cc3cc(O)ccc3[nH]2)c2c(N)ncnc21 | + (+ = 0.9 to 1.5) |
| CC(C=CC(=O)NO)=CC(C)C(=O)c1ccc(N(C)C)cc1 (centres unmarked) | + (+ = 0.9 to 1.5) |

# renormalizing the translational profile of EEF2 (compound: Cc1cc(C2CCCCC2)n(O)c(=O)c1.NCCO ) is − (− = <0.9)

* * *

# Test system: normal human lung fibroblasts
# experimental_details: Ribosomal profiling: translational efficiency in TGFβ-treated fibroblasts
# Assay type: cell-based
# measurement_setup: gene RPS15A (ENSG00000134419); TGFβ-treated fibroblasts
metric_name: effect in renormalizing the translational profile of the gene

| compound | tgt | value_reported |
| --- | --- | --- |
| CC(C=CC(=O)NO)=CC(C)C(=O)c1ccc(N(C)C)cc1 (centres unmarked) [TSA] | normal human lung fibroblasts | − (− = <0.9) |
| COC(=O)[C@H]1[C@@H](O)[C@@]2(O)c3c(OC)cc(O[C@@H]4O[C@@H]([C@H](O)CO)CO[C@H]4OC)cc3O[C@@]2(c2ccc(OC)cc2)[C@@H]1c1ccccc1 [Silvestrol] | normal human lung fibroblasts | − (− = <0.9) |
| CC(C)n1nc(-c2cc3cc(O)ccc3[nH]2)c2c(N)ncnc21 [PP242] | normal human lung fibroblasts | + (+ = 0.9 to 1.5) |
| Cc1ccc(=O)n(-c2ccccc2)c1 [pirfenidone, 5-methyl-1-phenylpyridin-2-one] | normal human lung fibroblasts | + (+ = 0.9 to 1.5) |

Next, consider the following compound.
# effect in renormalizing the translational profile of the gene (compound: Cc1cc(C2CCCCC2)n(O)c(=O)c1.NCCO [CPX, ciclopirox oloamine] ) is − (− = <0.9)

The reported numbers originate from patent US9993494B2.
